Test: NCI Yeast Anticancer Drug Screen. Data for the rad50 strain (AID 155);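 note: 0% = growth of vehicle-only cultures of the same strain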
Conditions: S. cerevisiae rad50 strain growth inhibition; at 50.0 µM
The panel holds about 79,000 compounds, 15% with a hit somewhere; the sample as a whole holds those more often. Activity calls are given as the source filed them. Cut-off read from the data, not from the text of the source: active = growth inhibition above about 70%; inactive = the rest.
Outcomes you can answer with include only these: 1.0 (active), 0.0 (inactive)

Query: Per the assay record, what outcome was assigned to Cc1ccc(C(=O)N2CCCCC2)cc1N=NN(C)C ?
Response: 0.0

Query: Please give the result for CSc1[nH]c2ncnc(Cl)c2c1C#N too.
Response: 0.0

Query: Repeat with O=c1cc(Cl)ncn1C1OC(CO)C(O)C1O (configuration not stated)
Response: 0.0

Query: // same read-out, input: COc1cc([N+](=O)[O-])c(C=O)c(C(=O)O)c1OC
Response: 0.0

Query: What about C=C(C)CNC(C)=O ?
Response: 0.0

Query: Entry COC(=O)c1ccc(NCc2cc(O)ccc2O)cc1O please
Response: 1.0

Query: Next record, please: OCCN(c1ccccc1)c1nc(N(CCO)c2ccccc2)nc(N(CCO)c2ccccc2)n1
Response: 0.0

Query: Proceed to Cc1[nH]c(=O)nc(N(CCO)/N=C/c2ccc(Cl)cc2)c1C(=O)Nc1ccc(Cl)cc1
Response: 0.0

Query: Okay, and CCCCn1cnnc1NS(=O)(=O)c1cc(C)c(Cl)cc1SCC(=O)O ?
Response: 0.0

Query: Another: CC1(c2cccc3c2C2(O)C=CC4(CCC32)OCCO4)OCCO1 (configuration not stated)
Response: 0.0

Query: Let us now turn to COc1ccc(NC(=O)N2CC3CCN2CC3)cc1
Response: 0.0

Query: Param item: Cc1cc(NC(=O)C(=O)Cc2cnc3ccccc3n2)c(S(=O)(=O)O)cc1Cl
Response: 0.0
